From: PubChem BioAssay (NCI)

For each record, write down the corresponding GI50.
System: HCT-116 colon
Experiment: NCI tumour cell line growth inhibition, 48 h

Looking up `O=c1[nH]cnc2c1nnn2[C@@H]1O[C@H](CO)[C@@H](O)[C@H]1O` , I found its GI50 recorded as 3930 nM

# compound CC(=O)O[C@H]1C(=O)[C@@]2(C)[C@H]([C@H](OC(=O)c3ccccc3)[C@]3(O)C[C@H](OC(=O)[C@H](OC(=O)CCC(=O)OC4CCC(S/N=C(N)/N=C(\N)N(C)C)CC4)[C@@H](NC(=O)c4ccccc4)c4ccccc4)C(C)=C1C3(C)C)[C@]1(OC(C)=O)CO[C@@H]1C[C@@H]2O (stereo not given in full) ; its GI50 = < 5 nM

So, O=C(/C=C/C12c3ccccc3C(c3ccccc31)C1C(=O)NC(=O)C12)c1ccco1 (stereo not given) ? Its GI50 was 1690 nM

Data point: `CCC[C@H](Nc1nc(-c2ccc(NC(=O)NCC)c(OC)c2)ncc1C)c1cccnc1` ; GI50 = 34.9 nM

Value of GI50 reported for the compound `N#C/C(=C\c1ccc(Br)cc1)n1nnc2cc(F)c(F)cc21` is 1560 nM

Record `CC(=O)[CH-]C(C)=O.CC(=O)[CH-]C(C)=O.CC(=O)[CH-]C(C)=O.[Cl-].[Hf+4]` . Reported GI50: > 100000 nM

Entry `CN(C)c1ccc2[nH]c(O)c(C=Nc3ccc(S(N)(=O)=O)cc3)c2c1` ; GI50 = 20300 nM

According to the records, this compound `O=C(/C=C/c1ccc2c(c1)OCO2)c1ccccc1` displays GI50 of 3740 nM

GI50 for CCCCCCCCO/N=C\c1c2c(O)c3c(O)c(C)c4c(c3c1O)C(=O)C(C)(O/C=C\C(OC)C(C)C(OC(C)=O)C(C)C(O)C(C)C(O)C(C)/C=C\C=C(\C)C(=O)N2)O4 (stereo not given) is 1060 nM

Per the records, this compound ( CCOC(=O)c1ccc(C(O)CC(=O)OC(C)(C)C)[nH]1 (stereo not given) ) has GI50 equal to 23200 nM

###

System: EKVX NSCLC
Assay: NCI tumour cell line growth inhibition, 48 h; in the data active = GI50 below about 0.43 µM; inactive = the rest
Output constraint: value belongs to 1 = active, -1 = inactive

Task: Look up the recorded call for `CCOC(=O)c1ccc2[nH]c(Cc3[nH]c4ccc(C(=O)OCC)cc4c3C)c(C)c2c1` in this test.
Output: -1

Task: Please indicate how the test categorized `Fc1ccc(Nc2ccc3cc(OCCCN4CCOCC4)ccc3n2)cc1F` .
Output: -1

Task: Would you mind telling me which call this test gave O=C1CC(N2C(=O)/C(=C/C(Cl)=C\c3ccc([N+](=O)[O-])cc3)SC2=S)C(=O)N1c1ccc(Cl)cc1 (centres undefined) ?
Output: -1

Task: Give the logged outcome of this assay for the following molecule: O=C1CN2CCC1C/C2=C\c1ccnc2c(Cl)cccc12 (centres undefined)
Output: -1

Task: Recorded test call requested for `N#Cc1c(SCc2ccccc2)nc2[nH]c(=S)[nH]c(=S)c2c1-c1ccco1`
Output: -1

Task: Write down the call the test reported for this molecule. Item: `COc1ccc(C(=O)c2ccc(OC)cc2OC)cc1`
Output: -1

Task: GET /call?item= `COc1cc2c(cc1OCCCCCN1CCN(c3cc(=O)oc4c(C)c(OC)ccc34)CC1)N=C[C@@H]1CCCN1C2=O` returns the recorded outcome of this test.
Output: 1

Task: Recorded call for `CC(=O)[CH-]C(C)=O.CC(=O)[CH-]C(C)=O.CC(=O)[CH-]C(C)=O.[Cl-].[Hf+4]` ?
Output: -1

Task: Returns: the outcome recorded for `CN(C)c1ccc2[nH]c(O)c(C=Nc3ccc(S(N)(=O)=O)cc3)c2c1` in this assay.
Output: -1
